assay.details: Ratio of drug concentration in lung to plasma of Beagle dog at 10 mg/kg, po measured for 12 hrs by LC-MS/MS analysis
Type: ADME, organism-based, Canis lupus familiaris
experimental.parameters: lung (relative to plasma)
readout.label: Kp at 12 h

[
  {
    "structure.smiles.string": "COc1cc(OC(F)F)c2nc3c(n2c1)C[C@@H](C(C)(C)C)c1cc(C(=O)O)c(=O)[nH]c1-3",
    "readout.label": "Kp at 12 h",
    "value.measured": 0.5
  },
  {
    "structure.smiles.string": "COCCCOc1cc2c(nc1OC)-c1cc(=O)c(C(=O)O)cn1[C@H](C(C)C)C2",
    "readout.label": "Kp at 12 h",
    "value.measured": 1.3
  },
  {
    "structure.smiles.string": "CC(C)(C)[C@@H]1Cc2c(nc3c(C(F)(F)F)cc(C4CC4)cn23)-c2[nH]c(=O)c(C(=O)O)cc21",
    "readout.label": "Kp at 12 h",
    "value.measured": 0.7
  }
]

====

assay.details: Metabolic stability in Sprague-Dawley rat liver microsomes assessed as clearance at 0.3 uM preincubated for 5 mins followed by NADPH addition measured upto 60 mins by LC-MS/MS analysis
Format: ADME, Microsome
experimental.parameters: time < 65 min, read-out: CLH
Collected microsomal CLint at 0.3 µM values appear next to each entry.

[
  {
    "structure.smiles.string": "COc1ccn2c3c(nc2c1OC(F)F)-c1[nH]c(=O)c(C(=O)O)cc1[C@H](C(C)(C)C)C3",
    "microsomal CLint at 0.3 µM [µL/min/mg]": 5
  },
  {
    "structure.smiles.string": "CC(C)(C)[C@@H]1Cc2c(nc3c(C(F)(F)F)cc(C4CC4)cn23)-c2[nH]c(=O)c(C(=O)O)cc21",
    "microsomal CLint at 0.3 µM [µL/min/mg]": 5
  },
  {
    "structure.smiles.string": "Cn1c2c(cc(C(=O)O)c1=O)[C@H](C(C)(C)C)Cc1c-2nc2c(C(F)(F)F)cc(Cl)cn12",
    "microsomal CLint at 0.3 µM [µL/min/mg]": 2
  },
  {
    "structure.smiles.string": "CC(C)(C)[C@@H]1Cc2c(nc3c(OC(F)F)cccn23)-c2[nH]c(=O)c(C(=O)O)c(O)c21",
    "microsomal CLint at 0.3 µM [µL/min/mg]": 279
  },
  {
    "structure.smiles.string": "CC(C)(C)[C@@H]1Cc2c(nc3c(OC(F)F)cc(F)cn23)-c2[nH]c(=O)c(C(=O)O)cc21",
    "microsomal CLint at 0.3 µM [µL/min/mg]": 4
  },
  {
    "structure.smiles.string": "COc1cc(OC(F)F)c2nc3c(n2c1)C[C@@H](C(C)(C)C)c1cc(C(=O)O)c(=O)[nH]c1-3",
    "microsomal CLint at 0.3 µM [µL/min/mg]": 3
  },
  {
    "structure.smiles.string": "CC(C)(C)[C@@H]1Cc2c(nc3c(C(F)(F)F)cccn23)-c2[nH]c(=O)c(C(=O)O)cc21",
    "microsomal CLint at 0.3 µM [µL/min/mg]": 8
  },
  {
    "structure.smiles.string": "COCCCOc1cc2c(nc1OC)-c1cc(=O)c(C(=O)O)cn1[C@H](C(C)C)C2",
    "microsomal CLint at 0.3 µM [µL/min/mg]": 3
  },
  {
    "structure.smiles.string": "CC(C)(C)[C@@H]1Cc2c(nc3c(OC(F)F)cccn23)-c2[nH]c(=O)c(C(=O)O)cc21",
    "microsomal CLint at 0.3 µM [µL/min/mg]": 33
  }
]

====

assay.details: Oral bioavailability in Sprague-Dawley rat at 5 mg/kg measured for 24 hrs by LC-MS/MS analysis
Format: ADME, organism-based
experimental.parameters: in vivo
readout.label: bioavailability (%)

[
  {
    "structure.smiles.string": "CC(C)(C)[C@@H]1Cc2c(nc3c(OC(F)F)cccn23)-c2[nH]c(=O)c(C(=O)O)c(O)c21",
    "unit.label": "%",
    "value.measured": 16
  }
]

====

assay.details: Total AUC (0 to 24 hrs) in Beagle dog at 45 mg/kg, po qd measured after 91 days
Format: ADME, organism-based, Canis lupus familiaris
experimental.parameters: in vivo, time 91 day
readout.label: AUC at 2184 h (ng·h/mL)

[
  {
    "structure.smiles.string": "COCCCOc1cc2c(nc1OC)-c1cc(=O)c(C(=O)O)cn1[C@H](C(C)C)C2",
    "value.measured": 95200
  }
]

====

assay.details: Total AUC (0 to 24 hrs) in Beagle dog at 60 mg/kg, po qd measured after 91 days
Assay type: ADME, organism-based, Canis lupus familiaris
experimental.parameters: in vivo, time 91 day

[
  {
    "structure.smiles.string": "COCCCOc1cc2c(nc1OC)-c1cc(=O)c(C(=O)O)cn1[C@H](C(C)C)C2",
    "unit.label": "µg·h/mL",
    "AUC at 2184 h": 128
  }
]

====

assay.details: AUC (0 to 24 hrs) in CD-1 mouse at 0.2 mg/kg, po measured for 24 hrs by LC-MS/MS analysis
Assay type: ADME, organism-based
experimental.parameters: in vivo
Collected log10 AUC(0-t) at 24 h values appear next to each entry.
readout.label: log10 AUC(0-t) at 24 h (log10 of the value in ng·h/mL)

[
  {
    "structure.smiles.string": "Cn1c2c(cc(C(=O)O)c1=O)[C@H](C(C)(C)C)Cc1c-2nc2c(C(F)(F)F)cc(Cl)cn12",
    "log10 AUC(0-t) at 24 h": 1.23
  },
  {
    "structure.smiles.string": "COc1ccn2c3c(nc2c1OC(F)F)-c1[nH]c(=O)c(C(=O)O)cc1[C@H](C(C)(C)C)C3",
    "log10 AUC(0-t) at 24 h": 1.64
  },
  {
    "structure.smiles.string": "CC(C)(C)[C@@H]1Cc2c(nc3c(C(F)(F)F)cc(C4CC4)cn23)-c2[nH]c(=O)c(C(=O)O)cc21",
    "log10 AUC(0-t) at 24 h": 2.44
  },
  {
    "structure.smiles.string": "COc1cc(OC(F)F)c2nc3c(n2c1)C[C@@H](C(C)(C)C)c1cc(C(=O)O)c(=O)[nH]c1-3",
    "log10 AUC(0-t) at 24 h": 2.17
  },
  {
    "structure.smiles.string": "CC(C)(C)[C@@H]1Cc2c(nc3c(OC(F)F)cc(F)cn23)-c2[nH]c(=O)c(C(=O)O)cc21",
    "log10 AUC(0-t) at 24 h": 1.83
  }
]

====

assay.details: Drug concentration in Beagle dog liver at 10 mg/kg, po measured for 12 hrs by LC-MS/MS analysis
Format: ADME, organism-based, Canis lupus familiaris
experimental.parameters: read-out: Ct
readout.label: concentration at 12 h (ng/g)

[
  {
    "structure.smiles.string": "COc1cc(OC(F)F)c2nc3c(n2c1)C[C@@H](C(C)(C)C)c1cc(C(=O)O)c(=O)[nH]c1-3",
    "readout.label": "concentration at 12 h",
    "unit.label": "ng/g",
    "value.measured": 2910
  },
  {
    "structure.smiles.string": "CC(C)(C)[C@@H]1Cc2c(nc3c(C(F)(F)F)cc(C4CC4)cn23)-c2[nH]c(=O)c(C(=O)O)cc21",
    "readout.label": "concentration at 12 h",
    "unit.label": "ng/g",
    "value.measured": 275
  },
  {
    "structure.smiles.string": "COCCCOc1cc2c(nc1OC)-c1cc(=O)c(C(=O)O)cn1[C@H](C(C)C)C2",
    "readout.label": "concentration at 12 h",
    "unit.label": "ng/g",
    "value.measured": 140
  }
]

====

assay.details: AUC (0 to 24 hrs) in CD-1 mouse at 10 mg/kg, po measured for 24 hrs by LC-MS/MS analysis
Format: ADME, organism-based
experimental.parameters: in vivo
readout.label: AUC(0-t) at 24 h (ng·h/mL)

[
  {
    "structure.smiles.string": "CC(C)(C)[C@@H]1Cc2c(nc3c(OC(F)F)cccn23)-c2[nH]c(=O)c(C(=O)O)c(O)c21",
    "unit.label": "ng·h/mL",
    "value.measured": 989
  },
  {
    "structure.smiles.string": "Cn1c2c(cc(C(=O)O)c1=O)[C@H](C(C)(C)C)Cc1c-2nc2c(C(F)(F)F)cc(Cl)cn12",
    "unit.label": "ng·h/mL",
    "value.measured": 786
  },
  {
    "structure.smiles.string": "CC(C)(C)[C@@H]1Cc2c(nc3c(C(F)(F)F)cc(C4CC4)cn23)-c2[nH]c(=O)c(C(=O)O)cc21",
    "unit.label": "ng·h/mL",
    "value.measured": 20500
  },
  {
    "structure.smiles.string": "CC(C)(C)[C@@H]1Cc2c(nc3c(OC(F)F)cc(F)cn23)-c2[nH]c(=O)c(C(=O)O)cc21",
    "unit.label": "ng·h/mL",
    "value.measured": 2740
  },
  {
    "structure.smiles.string": "COc1ccn2c3c(nc2c1OC(F)F)-c1[nH]c(=O)c(C(=O)O)cc1[C@H](C(C)(C)C)C3",
    "unit.label": "ng·h/mL",
    "value.measured": 2690
  },
  {
    "structure.smiles.string": "COc1ccn2c3c(nc2c1OC)-c1[nH]c(=O)c(C(=O)O)cc1[C@H](C(C)(C)C)C3",
    "unit.label": "ng·h/mL",
    "value.measured": 5100
  },
  {
    "structure.smiles.string": "CC(C)(C)[C@@H]1Cc2c(nc3c(C(F)(F)F)cccn23)-c2[nH]c(=O)c(C(=O)O)cc21",
    "unit.label": "ng·h/mL",
    "value.measured": 2150
  },
  {
    "structure.smiles.string": "COCCCOc1cc2c(nc1OC)-c1[nH]c(=O)c(C(=O)O)c(O)c1[C@H](C(C)(C)C)C2",
    "unit.label": "ng·h/mL",
    "value.measured": 4940
  },
  {
    "structure.smiles.string": "CC(C)(C)[C@@H]1Cc2c(nc3c(OC(F)F)cccn23)-c2[nH]c(=O)c(C(=O)O)cc21",
    "unit.label": "ng·h/mL",
    "value.measured": 853
  },
  {
    "structure.smiles.string": "COc1cc(OC(F)F)c2nc3c(n2c1)C[C@@H](C(C)(C)C)c1cc(C(=O)O)c(=O)[nH]c1-3",
    "unit.label": "ng·h/mL",
    "value.measured": 18900
  },
  {
    "structure.smiles.string": "COCCCOc1cc2c(nc1OC)-c1cc(=O)c(C(=O)O)cn1[C@H](C(C)C)C2",
    "unit.label": "ng·h/mL",
    "value.measured": 4770
  }
]

These measurements were taken from ChEMBL document CHEMBL6127124.
